Ref: ChEMBL document CHEMBL1212849

Here we list compounds with their recorded IC50 when tested on Serine/threonine-protein kinase B-raf (Homo sapiens, UniProt P15056).
Sequence (P15056 whole entry): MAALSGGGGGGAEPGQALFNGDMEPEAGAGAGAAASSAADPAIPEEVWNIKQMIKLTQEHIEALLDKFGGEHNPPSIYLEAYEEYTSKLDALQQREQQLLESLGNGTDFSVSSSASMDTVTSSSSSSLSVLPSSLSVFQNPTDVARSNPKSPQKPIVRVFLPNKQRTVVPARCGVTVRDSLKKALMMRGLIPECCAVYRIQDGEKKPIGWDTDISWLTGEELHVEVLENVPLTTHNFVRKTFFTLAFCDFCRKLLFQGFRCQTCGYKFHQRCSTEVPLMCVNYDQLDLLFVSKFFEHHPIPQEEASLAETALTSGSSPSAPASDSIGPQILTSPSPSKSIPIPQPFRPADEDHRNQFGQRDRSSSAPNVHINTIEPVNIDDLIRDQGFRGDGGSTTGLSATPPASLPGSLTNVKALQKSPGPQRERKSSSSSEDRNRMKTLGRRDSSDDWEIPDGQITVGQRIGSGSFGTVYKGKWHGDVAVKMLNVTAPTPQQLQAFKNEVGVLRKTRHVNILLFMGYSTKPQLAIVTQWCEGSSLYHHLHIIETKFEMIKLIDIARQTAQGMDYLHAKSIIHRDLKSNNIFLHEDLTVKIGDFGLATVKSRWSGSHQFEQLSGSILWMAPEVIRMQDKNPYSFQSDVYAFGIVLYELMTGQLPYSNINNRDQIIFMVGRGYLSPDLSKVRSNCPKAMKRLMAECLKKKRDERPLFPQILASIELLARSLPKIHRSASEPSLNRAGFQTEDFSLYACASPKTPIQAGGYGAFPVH
quantity_kind: IC50

smiles_representation=O=C(Nc1ccc(OCCN2CCOCC2)cc1)Nc1ccc(Cl)c(C(F)(F)F)c1 quantity_kind=IC50 assay_value="0.0923 µM"
smiles_representation=CNC(=O)c1cc(Oc2ccc(NC(=O)Nc3ccc(CN4CCN(C)CC4)cc3)cc2)ccn1 quantity_kind=IC50 assay_value="> 100 µM"
smiles_representation=CNC(=O)c1cc(Oc2ccc(NC(=O)Nc3cc(C(C)(C)C)nn3-c3ccc(C)cc3)cc2)ccn1 quantity_kind=IC50 assay_value="0.237 µM"
smiles_representation=Cc1ccc(NC(=O)Nc2ccc(Cl)c(C(F)(F)F)c2)cc1Nc1nccc(-c2cccnc2)n1 quantity_kind=IC50 assay_value="0.18 µM"
smiles_representation=Cc1ccc(-n2nc(C(C)(C)C)cc2NC(=O)Nc2ccc(C)c(Nc3nccc(-c4cccnc4)n3)c2)cc1 quantity_kind=IC50 assay_value="0.414 µM"
smiles_representation=O=C(Nc1ccc(Cl)c(C(F)(F)F)c1)Nc1ccc(OCCN2CCOCC2)c2ccccc12 quantity_kind=IC50 assay_value="< 0.001 µM"

----------
Here the recorded IC50 is given for each entry.
- measured_target: Mitogen-activated protein kinase 14 (Homo sapiens)
- Sequence (Q16539 whole entry): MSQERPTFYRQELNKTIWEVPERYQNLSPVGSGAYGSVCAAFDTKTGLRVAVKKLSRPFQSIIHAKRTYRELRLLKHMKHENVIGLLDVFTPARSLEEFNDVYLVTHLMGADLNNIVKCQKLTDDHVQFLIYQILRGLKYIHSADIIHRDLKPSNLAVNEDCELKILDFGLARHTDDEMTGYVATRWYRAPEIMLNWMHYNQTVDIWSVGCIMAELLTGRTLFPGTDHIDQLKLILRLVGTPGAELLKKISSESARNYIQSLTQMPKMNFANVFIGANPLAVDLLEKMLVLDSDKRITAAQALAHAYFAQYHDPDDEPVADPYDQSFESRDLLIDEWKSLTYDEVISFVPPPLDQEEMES
- test_summary: Inhibition of human recombinant full-length N-terminal GST-tagged p38alpha expressed in Escherichia coli by radiometric kinase assay
quantity_kind: IC50 (nM)

smiles_representation=CNC(=O)c1cc(Oc2ccc(NC(=O)c3ccc(CN4CCN(C)CC4)cc3)cc2)ccn1 quantity_kind=IC50 bound_type=> assay_value=100000
smiles_representation=CN1CCN(Cc2ccc(C(=O)Nc3ccc(OCCN4CCOCC4)c4ccccc34)cc2)CC1 quantity_kind=IC50 bound_type=> assay_value=100000
smiles_representation=Cc1ccc(-n2nc(C(C)(C)C)cc2NC(=O)Nc2ccc(C)c(Nc3nccc(-c4cccnc4)n3)c2)cc1 quantity_kind=IC50 bound_type== assay_value=189
smiles_representation=O=C(Nc1ccc(OCCN2CCOCC2)cc1)Nc1ccc(Cl)c(C(F)(F)F)c1 quantity_kind=IC50 bound_type== assay_value=105
smiles_representation=CNC(=O)c1cc(Oc2ccc(NC(=O)Nc3ccc(CN4CCN(C)CC4)cc3)cc2)ccn1 quantity_kind=IC50 bound_type=> assay_value=100000
smiles_representation=Cc1ccc(NC(=O)Nc2ccc(Cl)c(C(F)(F)F)c2)cc1Nc1nccc(-c2cccnc2)n1 quantity_kind=IC50 bound_type== assay_value=18.4

----------
- measured_target: Tyrosine-protein kinase ABL1 (Mus musculus)
- Sequence (P00520 whole entry): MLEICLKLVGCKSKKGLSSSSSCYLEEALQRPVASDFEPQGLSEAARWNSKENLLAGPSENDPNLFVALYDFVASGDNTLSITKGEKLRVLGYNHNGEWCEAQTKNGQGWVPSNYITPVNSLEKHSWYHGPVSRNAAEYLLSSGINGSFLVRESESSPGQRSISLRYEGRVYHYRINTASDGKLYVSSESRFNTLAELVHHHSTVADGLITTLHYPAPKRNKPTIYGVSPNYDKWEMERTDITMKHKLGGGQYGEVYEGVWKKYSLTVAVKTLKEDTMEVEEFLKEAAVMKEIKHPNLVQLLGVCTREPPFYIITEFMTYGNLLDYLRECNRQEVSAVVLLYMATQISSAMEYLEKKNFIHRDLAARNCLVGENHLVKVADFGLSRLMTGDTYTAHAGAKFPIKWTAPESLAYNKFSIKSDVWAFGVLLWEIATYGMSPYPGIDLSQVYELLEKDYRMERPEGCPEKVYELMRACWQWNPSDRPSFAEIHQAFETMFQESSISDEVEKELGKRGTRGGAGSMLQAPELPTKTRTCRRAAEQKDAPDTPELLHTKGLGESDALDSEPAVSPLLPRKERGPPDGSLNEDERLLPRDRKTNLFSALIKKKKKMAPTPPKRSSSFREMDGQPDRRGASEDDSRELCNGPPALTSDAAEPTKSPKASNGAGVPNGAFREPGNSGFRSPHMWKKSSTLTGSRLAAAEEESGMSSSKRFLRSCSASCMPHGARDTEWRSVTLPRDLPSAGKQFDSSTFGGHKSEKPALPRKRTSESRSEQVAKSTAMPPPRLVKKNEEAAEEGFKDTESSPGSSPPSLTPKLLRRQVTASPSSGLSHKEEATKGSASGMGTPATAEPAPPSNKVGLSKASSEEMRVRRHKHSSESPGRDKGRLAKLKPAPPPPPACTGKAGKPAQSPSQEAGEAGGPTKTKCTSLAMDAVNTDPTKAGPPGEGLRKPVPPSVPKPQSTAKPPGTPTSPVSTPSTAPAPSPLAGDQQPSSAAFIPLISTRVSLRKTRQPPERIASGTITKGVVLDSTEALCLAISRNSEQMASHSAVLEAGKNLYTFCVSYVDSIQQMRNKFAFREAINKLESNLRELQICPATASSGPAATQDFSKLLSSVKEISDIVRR
pIC50: −log10 of the molar value.
Response key: TRUE means pIC50 >= 7; FALSE means pIC50 < 7.

smiles_representation=Cc1ccc(-n2nc(C(C)(C)C)cc2NC(=O)Nc2ccc(C)c(Nc3nccc(-c4cccnc4)n3)c2)cc1 category_label=TRUE
smiles_representation=CNC(=O)c1cc(Oc2ccc(NC(=O)Nc3ccc(CN4CCN(C)CC4)cc3)cc2)ccn1 category_label=FALSE
smiles_representation=O=C(Nc1ccc(Cl)c(C(F)(F)F)c1)Nc1ccc(OCCN2CCOCC2)c2ccccc12 category_label=FALSE
smiles_representation=Cc1ccc(NC(=O)Nc2ccc(Cl)c(C(F)(F)F)c2)cc1Nc1nccc(-c2cccnc2)n1 category_label=TRUE
smiles_representation=O=C(Nc1ccc(OCCN2CCOCC2)cc1)Nc1ccc(Cl)c(C(F)(F)F)c1 category_label=FALSE
